Tested on: 786-0
Test: NCI tumour cell line growth inhibition, 48 h
Calls of active or inactive are those of the source. Cut-off read from the data, not from the text of the source: active = GI50 up to about 1.1 µM and inactive = higher.
Assign a class; possible classes are active, inactive

Name the outcome recorded for Cc1c(N)nc(C(CC(N)=O)NCC(N)C(N)=O)nc1C(=O)NC(C(=O)NC(C)C(O)C(C)C(=O)NC(C(=O)NCCc1nc(-c2nc(C(=O)NCCCNCCCCN)cs2)cs1)C(C)O)C(OC1OC(CO)C(O)C(O)C1OC1OC(CO)C(O)C(OC(N)=O)C1O)c1c[nH]cn1 (stereo unspecified) in the assay.
inactive

What would you report for NCCCn1c2ccccc2c2c3c(c4c(c21)CCC(O)CC4)C(=O)NC3=O (stereo unspecified) ?
inactive

What would you report for CC1=C(C(=O)Nc2ccccc2C)C(c2ccccc2C)C(C(=O)Nc2ccccc2C)=C(C)N1 ?
inactive

What would you report for c1ccc(-c2ccc(/N=N/N3CCCC3)cc2)cc1 ?
inactive

What would you report for COc1cc(C=O)ccc1Oc1nnnn1-c1ccccc1 ?
inactive

What would you report for O=[N+]([O-])c1ccc(Cl)c(CNc2ncnc3c2ncn3C2CCCCO2)c1 (stereo unspecified) ?
inactive

What would you report for O=C1Nc2cc(Cl)ccc2C(=O)N2CCC[C@@H]12 ?
inactive

What would you report for CN(CCN(C)Cc1ccc(Cl)c(Cl)c1)CCN1CCCC1 ?
inactive

What would you report for Cc1cccc(-c2cc(=O)c3cc(C)c(C)c(C(=O)O)c3o2)c1 ?
inactive

What would you report for CSC(=S)N/N=C(\C)c1cccc(C)n1 ?
active

What would you report for CCC1CCC2c3c([nH]c4ccc(C)cc34)C3C(=O)N(N(C)C)C(=O)C3C2C1 (stereo unspecified) ?
inactive

* * *

Tested on: SR
Assay: NCI tumour cell line growth inhibition, 48 h
The source made the active and inactive calls. Rule as the data show it: active = GI50 up to about 1.1 µM and inactive = higher.
Assign a class; possible classes are active, inactive

Name the outcome recorded for COc1ccc(CC2C(=O)NC(C)C(=O)N(C)C3C(=O)N(C)C(Cc4ccc(O)c(c4)Oc4ccc(cc4)C3O)C(=O)NC(C)C(=O)NC(C)C(=O)N2C)cc1 (centres undefined) in the assay.
active

What would you report for O=C(Nc1cc2c(=O)oc3ccccc3c2oc1=O)c1cccnc1 ?
inactive

What would you report for COc1cc2cc(C(=O)N3CC(CCl)c4c3cc(NC(=O)OCc3ccc([N+](=O)[O-])cc3)c3ccccc43)[nH]c2c(OC)c1OC (centres undefined) ?
active

What would you report for CNC(=O)OCc1cnc([N+](=O)[O-])n1C ?
inactive

* * *

Test system: RPMI-8226
Assay: NCI tumour cell line growth inhibition, 48 h
Calls of active or inactive are those of the source. Cut-off read from the data, not from the text of the source: active = GI50 up to about 1.1 µM and inactive = higher.
TEST READOUT: GI50

Which measured GI50 belongs to CC1(C)OC(=O)C(c2ccsc2)C(=O)O1 , tested on RPMI-8226?
> 100 µM (inactive)

What would you report for Nc1cccc(C#Cc2cccc(C#Cc3cccc(N)n3)n2)n1 ?
91 µM (inactive)

What would you report for Cc1cccc(CC(Cc2c(C)cccc2C(=O)O)C(=O)O)c1 (centres undefined) ?
> 100 µM (inactive)

What would you report for O=C(c1ccccc1)C1OC12C(=O)Nc1c(Cl)cc(Cl)cc12 (centres undefined) ?
47.5 µM (inactive)

What would you report for COc1ccc2nc3cc(Cl)ccc3c(SCC(=O)Nc3ccccc3-c3ccccc3NC(=O)CSc3c4ccc(Cl)cc4nc4ccc(OC)cc34)c2c1 ?
> 100 µM (inactive)

What would you report for CC(C)[Si](OC1=C(C(=O)N(C)c2cccc(Cl)c2)CCCC1)(C(C)C)C(C)C ?
8.73 µM (inactive)

What would you report for CC(=O)OCC1OC(O[C@@H]2C[C@H]3C(C)(C)[C@@H](OC(C)=O)CC[C@]3(C)[C@H]3CC[C@]45C[C@]4(CC[C@H]5[C@@H](C)C[C@@H](O)[C@H](O)C(C)(C)F)[C@@]32C)C(O)C(O)C1O (some centres undefined) ?
1.79 µM (inactive)

What would you report for CN(NC(=O)CCCl)C1=NCCN1 ?
> 100 µM (inactive)

What would you report for COc1cc2ccc1-c1cc(ccc1O)CC1c3cc4c(cc3CCN1C)Oc1c(OC)cc3c(c1O4)C(C2)N(C)CC3 (centres undefined) ?
1.91 µM (inactive)

Hello, the source for this data is ChEMBL document CHEMBL1201862, in case you need it.
